# PROCEDURE_SUMMARY: ATG_VDRE_CIS: Attagene CIS-FACTORIAL HepG2 Assay for human Vitamin D Receptor Element (VDRE) (AID 2282968)
# ASSAY_SETUP: HepG2 VDRE cis-reporter transcription, actives raise or lower the signal
Calls of active or inactive are those of the source. Rule for the calls: active = hit-call score of the fitted dose curve at least 0.9, where 1 is the maximum; inactive = score below 0.9.
Please state which outcome applies, choosing from y for active, n for inactive

MOLECULE: CCOc1nc(C(Cl)(Cl)Cl)ns1
ASSIGNED_CATEGORY: n
//
MOLECULE: C=CCOC(=O)C(C)(C)OC(=O)c1cc(-n2c(=O)cc(C(F)(F)F)n(C)c2=O)ccc1Cl
ASSIGNED_CATEGORY: n
//
MOLECULE: CCOP(=S)(OCC)Oc1nc(Cl)n(C(C)C)n1
ASSIGNED_CATEGORY: y
//
MOLECULE: COCC(=O)N(c1c(C)cccc1C)C(C)C(=O)OC (stereo unspecified)
ASSIGNED_CATEGORY: n

Continue with the molecule presented below.
Qu. Which outcome was assigned to CC(C)C1(C)N=C(c2ncccc2C(=O)O)NC1=O (stereo unspecified) in this test?
Ans. n

---

# SUBJECT_OF_TEST: human Constitutive Androstane Receptor (CAR), NR1I3 (gene 9970)
# PROCEDURE_SUMMARY: NVS_NR_hCAR_Antagonist: NovaScreen (NVS) Nuclear Receptor Binding Assay for human Constitutive Androstane Receptor Antagonism (CAR) (AID 2283344)
Records with an inconclusive call do not appear. Active and inactive are the calls of the source. The calls were made as follows: active = hit-call score of the fitted dose curve at least 0.9, where 1 is the maximum; inconclusive = response in the unintended direction; inactive = score below 0.9.
Respond with a class label; see active, inactive

Illustrative cases are given below, each with its answer.
COMPOUND: CC(C)NC(=O)N1CC(=O)N(c2cc(Cl)cc(Cl)c2)C1=O
ASSIGNED_CATEGORY: inactive
//
COMPOUND: COCC(=O)N(c1c(C)cccc1C)C(C)C(=O)OC (centres undefined)
ASSIGNED_CATEGORY: inactive
//
COMPOUND: O=C1C2CC=CCC2C(=O)N1SC(Cl)(Cl)Cl (centres undefined)
ASSIGNED_CATEGORY: inactive

Qu. What did this assay record as the result for CCCCC(C#N)(Cn1cncn1)c1ccc(Cl)cc1 (centres undefined) ?
Ans. inactive

Qu. For CC(C)Oc1cccc(NC(=O)c2ccccc2C(F)(F)F)c1 , what call appears in the results of this test?
Ans. inactive

Qu. Kindly provide the recorded test outcome for the following compound: COC(=O)NS(=O)(=O)c1ccc(N)cc1
Ans. inactive

Qu. // outcome(item) with item = COC(=O)c1c(C(F)F)nc(C(F)(F)F)c(C2=NCCS2)c1CC(C)C
Ans. inactive

---

# Read-out: Tumor necrosis factor receptor 1 (TNFRSF1A), TNFRSF1A (gene 7132)
# PROCEDURE_SUMMARY: LTEA_HepaRG_TNFRSF1A: Life Technologies and Expression Analysis (LTEA) Assay for Tumor necrosis factor receptor 1 (TNFRSF1A) using HepaRG (AID 2283535)
# ASSAY_SETUP: mRNA level, 48 h; actives raise or lower the signal
Active and inactive are the calls of the source. Rule for the calls: active = hit-call score of the fitted dose curve at least 0.9, where 1 is the maximum; inactive = score below 0.9.
Assign a class; possible classes are true = active, false = inactive

COMPOUND: COP(=S)(OC)Oc1ccc([N+](=O)[O-])c(C)c1
ASSIGNED_CATEGORY: false

// switching to the query compound
Qu. I would be grateful if you could indicate the recorded call for CC(C)C1(C)N=C(c2ncccc2C(=O)O)NC1=O (stereo not given) .
Ans. false

---

# PROCEDURE_SUMMARY: BSK_KF3CT_SRB: Viability Assessment in the BioMAP Diversity Plus: KF3CT Assay (AID 2283069);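 note: total protein by sulforhodamine B staining as a cytotoxicity measure; read 24 h after compound addition; fitted for both signal gain and loss against DMSO baseline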
# ASSAY_SETUP: primary human keratinocytes with fibroblasts
Calls of active or inactive are those of the source. The calls were made as follows: active = hit-call score of the fitted dose curve at least 0.9, where 1 is the maximum; inactive = score below 0.9.
Form entry, call: pick from class 1 (active), class 0 (inactive)

Example entries begin here.
COMPOUND: Cc1ccc(N=CN(C)C=Nc2ccc(C)cc2C)c(C)c1
ASSIGNED_CATEGORY: class 1

COMPOUND: CC(C)Oc1cccc(NC(=O)c2ccccc2C(F)(F)F)c1
ASSIGNED_CATEGORY: class 0

COMPOUND: CNC(=O)Oc1cccc2ccccc12
ASSIGNED_CATEGORY: class 0

COMPOUND: CC(C)Nc1nc(Cl)nc(NC(C)C)n1
ASSIGNED_CATEGORY: class 0

COMPOUND: Cc1c(COC(=O)[C@@H]2[C@H](/C=C(\Cl)C(F)(F)F)C2(C)C)cccc1-c1ccccc1
ASSIGNED_CATEGORY: class 0

Qu. What was the test verdict on CC1(C)C(C(=O)OC(C#N)c2cccc(Oc3ccccc3)c2)C1(C)C (configuration not stated) ?
Ans. class 0

Qu. Fill in: this test's call for CO/N=C(/C1=NOCCO1)c1ccccc1Oc1ncnc(Oc2ccccc2Cl)c1F is ___
Ans. class 0

Qu. Each compound tested received a call. Report the one for N#Cc1c(Cl)cccc1Cl .
Ans. class 0

Qu. Please share the test call associated with Nc1cnn(-c2ccccc2)c(=O)c1Cl .
Ans. class 0

Qu. Assay outcome for COc1cc(Cl)c(OC)cc1Cl : what was it?
Ans. class 0

Qu. // return assay outcome for CC(C)=CC1C(C(=O)OCc2coc(Cc3ccccc3)c2)C1(C)C (configuration not stated)
Ans. class 0

Qu. Which outcome did this test record for the compound COP(=S)(OC)Oc1ccc([N+](=O)[O-])c(C)c1 ?
Ans. class 0

---

# Read-out: BCL2L11 (gene 10018)
# PROCEDURE_SUMMARY: LTEA_HepaRG_BCL2L11: Life Technologies and Expression Analysis (LTEA) Assay for Bcl-2 (BCL2L11) gene using HepaRG (AID 2283473)
# ASSAY_SETUP: mRNA level, 48 h; actives raise or lower the signal
The source made the active and inactive calls. The calls were made as follows: active = hit-call score of the fitted dose curve at least 0.9, where 1 is the maximum; inactive = score below 0.9.
Please answer using one outcome listed in active, inactive

Solved cases (8 shown):
COMPOUND: Cc1ccc(N=CN(C)C=Nc2ccc(C)cc2C)c(C)c1
ASSIGNED_CATEGORY: inactive
//
COMPOUND: CCCCC(O)(Cn1cncn1)c1ccc(Cl)cc1Cl (configuration not stated)
ASSIGNED_CATEGORY: inactive
//
COMPOUND: COC(=O)N(C(=O)N1CO[C@@]2(C(=O)OC)Cc3cc(Cl)ccc3C2=N1)c1ccc(OC(F)(F)F)cc1
ASSIGNED_CATEGORY: active
//
COMPOUND: CC(C)(C)C(=O)C(Oc1ccc(Cl)cc1)n1cncn1 (configuration not stated)
ASSIGNED_CATEGORY: inactive
//
COMPOUND: COCc1cnc(C2=NC(C)(C(C)C)C(=O)N2)c(C(=O)O)c1 (configuration not stated)
ASSIGNED_CATEGORY: inactive
//
COMPOUND: CCOC(=O)C(C)OC(=O)c1cc(Oc2ccc(C(F)(F)F)cc2Cl)ccc1[N+](=O)[O-] (configuration not stated)
ASSIGNED_CATEGORY: inactive
//
COMPOUND: Cc1c(COC(=O)[C@@H]2[C@H](/C=C(\Cl)C(F)(F)F)C2(C)C)cccc1-c1ccccc1
ASSIGNED_CATEGORY: inactive
//
COMPOUND: C=C(C)CN(CC)c1c([N+](=O)[O-])cc(C(F)(F)F)cc1[N+](=O)[O-]
ASSIGNED_CATEGORY: inactive

Qu. Kindly provide the recorded test outcome for the following compound: COC(=O)NS(=O)(=O)c1ccc(N)cc1
Ans. inactive

---

# PROCEDURE_SUMMARY: BSK_SAg_Proliferation: Cell Proliferation Assessment in the BioMAP Diversity Plus: SAg Assay (AID 2283095);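 note: relative cell number as total protein by SRB absorbance in sub-confluent culture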
# ASSAY_SETUP: primary human HUVEC with PBMC
The source made the active and inactive calls. The calls were made as follows: active = hit-call score of the fitted dose curve at least 0.9, where 1 is the maximum; inactive = score below 0.9.
Answer with one of the outcomes given here: active, inactive

These solved cases illustrate the format of a correct answer.
COMPOUND: O=C(Nc1ccccc1-c1ccc(Cl)cc1)c1cccnc1Cl
ASSIGNED_CATEGORY: inactive
//
COMPOUND: CC1(C)CCC(=Cc2ccc(Cl)cc2)C1(O)Cn1cncn1 (configuration not stated)
ASSIGNED_CATEGORY: inactive
//
COMPOUND: COP(=S)(OC)Oc1ccc([N+](=O)[O-])c(C)c1
ASSIGNED_CATEGORY: active

Qu. Which outcome did this test record for the compound Clc1nc(Cl)nc(Nc2ccccc2Cl)n1 ?
Ans. inactive

Qu. Call for entry CCOc1nc(C(Cl)(Cl)Cl)ns1 :
Ans. inactive

Qu. Name the outcome recorded for CN=C=S in the assay.
Ans. active

Qu. Which outcome was assigned to CC1(C)CON(Cc2ccccc2Cl)C1=O in this test?
Ans. inactive

---

# Read-out: Nuclear factor erythroid 2-related factor 2 (Homo sapiens)
# PROCEDURE_SUMMARY: LTEA_HepaRG_NFE2L2: Life Technologies and Expression Analysis (LTEA) Assay for Nuclear factor erythroid 2-related factor 2 (NFE2L2) Transcription Factor using HepaRG (AID 2283527)
# ASSAY_SETUP: mRNA level, 48 h; actives raise or lower the signal
# Description: LTEA_HepaRG is a cell based, multiplexed-readout assay that uses HepaRG, a human liver cell line, with measurements taken at 48 hours after chemical dosing on a 96-well plate.LTEA_HepaRG_NFE2L2 is one of 102 assay component(s) measured in the LTEA HepaRG cell culture assay. It is a marker of Inflammation/injury.Data from the assay component LTEA_HepaRG_NFE2L2 was analyzed into 1 endpoint. […]
Active and inactive are the calls of the source. Rule for the calls: active = hit-call score of the fitted dose curve at least 0.9, where 1 is the maximum; inactive = score below 0.9.
RECORDED_ENDPOINT: AC50

COMPOUND: CCNP(=S)(OC)O/C(C)=C/C(=O)OC(C)C (configuration not stated)
AC50: 9.92 µM (active)
--
COMPOUND: CC(C)(C)C(=O)C(Oc1ccc(Cl)cc1)n1cncn1 (configuration not stated)
AC50: inactive
--
COMPOUND: COc1ccc(-c2ccccc2)cc1NNC(=O)OC(C)C
AC50: inactive
--
COMPOUND: CC(C)Oc1cccc(NC(=O)c2ccccc2C(F)(F)F)c1
AC50: inactive
--
COMPOUND: CCCCC(O)(Cn1cncn1)c1ccc(Cl)cc1Cl (configuration not stated)
AC50: 50 µM (active)
--
COMPOUND: CS(=O)(=O)c1cc(C(F)(F)F)ccc1C(=O)c1cnoc1C1CC1
AC50: inactive

Your task in this section: give AC50 for each listed record.
1. COCC(C)N(C(=O)CCl)c1c(C)csc1C (configuration not stated)
2. Cc1nc(N(C)C)nc(OC(=O)N(C)C)c1C
3. CCOc1nc(C(Cl)(Cl)Cl)ns1
4. CO/N=C(/C1=NOCCO1)c1ccccc1Oc1ncnc(Oc2ccccc2Cl)c1F
5. CCSC(=O)N1CCCCCC1
6. COP(=S)(OC)Oc1ccc([N+](=O)[O-])c(C)c1

Ans.
1: inactive; 2: inactive; 3: 1.12 µM (active); 4: 50 µM (active); 5: inactive; 6: inactive
